# Tested on: G. duodenalis BRIS/91/HEPU/1279
# ASSAY COMMENT: Primary Giardia screen at 10 µM (live-cell imaging, automated counting)
# Type: cell-based, Giardia duodenalis
# CONDITION SUMMARY: 48 h, first singlicate assay
MEASURED ENDPOINT: % Inhibition n=1 48h (%)
Value expressed in %; do not type the unit.

response.value for CCCc1noc(Cn2c(-c3ccc(OC)c(OC)c3)noc2=O)n1 (field: % Inhibition n=1 48h) = 0.0

response.value for CN(C)CCn1c(=O)c2[nH]cnc2n(C)c1=O (field: % Inhibition n=1 48h) = 13.4

response.value for c1ccc2sc(N3CCCC3c3nnc4n3CCCCC4)nc2c1 (stereo not shown) (field: % Inhibition n=1 48h) = 12.0

response.value for CC(=O)c1c(C)[nH]c(C(=O)N2CCCC2c2nc(-c3cccc(C(F)(F)F)c3)c[nH]2)c1C (stereo not shown) (field: % Inhibition n=1 48h) = 17.0

---

# System: G. duodenalis BRIS/91/HEPU/1279
# ASSAY COMMENT: Primary Giardia screen at 10 µM (live-cell imaging, automated counting)
# Type: cell-based, Giardia duodenalis
# CONDITION SUMMARY: 48 h, first singlicate assay
# Experimental: Each compound was assessed in singlicate, at a final concentration of 10 μM (0.4 μL of a 5 mM stock; diluted to a final volume of 200 μL in culture medium; 0.2% DMSO). […] Plates were incubated in sealed chambers filled with 3% O2, 5% CO2 in N2 and growth was assessed at 24 and 48 h using live cell imaging and automated counting as previously described. […] The reliability of these assays was assessed by calculating Z’ factors for each plate as previously described.
Could you please report measured % Inhibition n=1 48h for the items listed next?
Answer with the figure and its unit, nothing else.

response.value for Cn1c(=O)c2c(-c3ccccc3)c(Nc3ccccc3)oc2n(C)c1=O (field: % Inhibition n=1 48h) = 9.4%

response.value for CCc1onc(C)c1C1CCCN1S(=O)(=O)c1ccc(CC(C)C)cc1 (stereo not drawn) (field: % Inhibition n=1 48h) = 26.3%

response.value for CC(C)CN1CC(C(=O)N2CCC(Nc3cccnn3)CC2)CC1=O (stereo not drawn) (field: % Inhibition n=1 48h) = 0.0%

response.value for CC(C)(C)NS(=O)(=O)c1ccc(N2CCC(c3nnc4n3CCC4)CC2)c([N+](=O)[O-])c1 (field: % Inhibition n=1 48h) = 4.6%

response.value for COc1ccc(CN2CCCN(c3ncnc4ccccc34)CC2)cc1 (field: % Inhibition n=1 48h) = 0.0%

response.value for c1cncc(-c2nc(Sc3nnnn3CC3CCCO3)c3ccccc3n2)c1 (stereo not drawn) (field: % Inhibition n=1 48h) = 11.8%

response.value for COc1ccc(CNC(=O)c2c(C)sc3cc(-c4ccccc4)oc23)cc1 (field: % Inhibition n=1 48h) = 29.4%

response.value for COc1ccc(-n2ccn(CC(=O)Nc3ccc(OC)cc3OC)c2=O)cc1 (field: % Inhibition n=1 48h) = 0.0%

response.value for Cc1ccc2c(c1)N=C(c1ccc(C)o1)N=C(c1cccs1)N2 (field: % Inhibition n=1 48h) = 69.6%

response.value for NC(=O)c1nn2c(C(F)(F)F)cc(-c3ccccc3)nc2c1Br (field: % Inhibition n=1 48h) = 38.7%

response.value for CCn1nccc1C(=O)NC1CCN(c2nccnc2OC)C1 (stereo not drawn) (field: % Inhibition n=1 48h) = 0.0%

response.value for Cc1c(-c2nc(-c3cccnc3)no2)oc2ccc(S(=O)(=O)N3CCOCC3)cc12 (field: % Inhibition n=1 48h) = 1.1%

response.value for CCOc1ccc(N/C(=N\S(C)(=O)=O)Nc2cc(C)c(Cl)cc2OC)cc1 (field: % Inhibition n=1 48h) = 18.1%

response.value for Cc1cc(C2CCCN(C(=O)CCc3cnn(C)c3)C2)n[nH]1 (stereo not drawn) (field: % Inhibition n=1 48h) = 7.8%

response.value for O=C(c1cccc(Br)c1)N1CCC(c2nc3ccccc3[nH]2)CC1 (field: % Inhibition n=1 48h) = 0.0%

response.value for CCOC(=O)c1cc(-c2ccccc2)n(CCC(=O)N2CCn3c2nc2ccccc23)c1C (field: % Inhibition n=1 48h) = 10.1%

response.value for CC1(C(=O)NC2CCCC2)Cn2c(ccc2-c2ccco2)C(=O)N1c1cccc(F)c1 (stereo not drawn) (field: % Inhibition n=1 48h) = 11.7%

response.value for CCn1c(CN2Cc3ccccc3C[C@H]2C(N)=O)nc2cc(S(=O)(=O)N3CCCCC3)ccc21 (field: % Inhibition n=1 48h) = 10.0%

response.value for Cc1ccc(CNc2nc(-c3ccco3)nn2C(=O)c2cccc([N+](=O)[O-])c2)cc1 (field: % Inhibition n=1 48h) = 6.6%

response.value for COc1ccc(Cl)cc1-n1nnc(-c2nsc(NC(=O)c3ccccc3)n2)c1C (field: % Inhibition n=1 48h) = 20.0%

response.value for COc1ccc(OCCn2c(NC(=O)c3ccc(OC)cc3)nc3ccccc32)cc1 (field: % Inhibition n=1 48h) = 19.5%

---

# Tested on: G. duodenalis BRIS/91/HEPU/1279
# ASSAY COMMENT: Primary Giardia screen at 10 µM (live-cell imaging, automated counting)
# Assay type: cell-based, Giardia duodenalis
# CONDITION SUMMARY: 48 h, first singlicate assay
Could you please report measured % Inhibition n=1 48h for the items listed next?
Answer with the figure and its unit, nothing else.

response.value for O=C(Cc1ccc2c(c1)CCC2)N1CCC(n2cncn2)CC1 (field: % Inhibition n=1 48h) = 6.3%

response.value for O=C(c1ccc(Cl)c(S(=O)(=O)NCC2CCCO2)c1)N1CC=C(c2ccccc2)CC1 (stereo not shown) (field: % Inhibition n=1 48h) = 6.8%

response.value for Cc1ccc(NS(=O)(=O)c2ccc(-c3nnc(C)o3)s2)cc1 (field: % Inhibition n=1 48h) = 5.1%

response.value for COCCNC(=O)N1Cc2c(C)nn(-c3ccccc3)c2-n2cccc2C1c1cccc(C)c1 (stereo not shown) (field: % Inhibition n=1 48h) = 10.0%

response.value for COc1ccc(CCC(=O)N2CCCN(C(=O)c3cc(-c4cccc(Cl)c4)on3)CC2)cc1 (field: % Inhibition n=1 48h) = 0.0%

response.value for O=C(CN1C(=O)NC2(CCc3ccccc32)C1=O)N1CCCC(c2nnc3ccccn23)C1 (stereo not shown) (field: % Inhibition n=1 48h) = 0.0%

response.value for COc1cccc(N2CCN(C(=O)C3CCN(c4nc(NC(C)=O)ns4)CC3)CC2)c1 (field: % Inhibition n=1 48h) = 16.2%

response.value for COc1ccc(CNc2nc(-c3cccc(OC)c3)no2)cc1 (field: % Inhibition n=1 48h) = 0.0%

response.value for Cc1cc(NC(=O)C2CCN(S(=O)(=O)c3c(C)n[nH]c3C)CC2)ccc1Br (field: % Inhibition n=1 48h) = 11.8%

response.value for CC(C)n1nc2c(cc1=O)CN(Cc1nc(-c3ccoc3)no1)CC2 (field: % Inhibition n=1 48h) = 10.7%

response.value for O=S1(=O)C[C@H](NCc2ccccn2)[C@@H](S(=O)(=O)c2ccccc2)C1 (field: % Inhibition n=1 48h) = 0.0%

response.value for CC(C)c1noc(-c2cc(=O)n(CC(=O)N3CCCC3)c3ccccc23)n1 (field: % Inhibition n=1 48h) = 0.0%

response.value for Cc1ccc(NC(=O)Cn2c(C)cc(C)c(-c3nc(-c4ccc5c(c4)OCO5)no3)c2=O)cc1 (field: % Inhibition n=1 48h) = 3.6%

response.value for CCCNc1nc(N2CCN(CC)CC2)c2cnn(C)c2n1 (field: % Inhibition n=1 48h) = 10.1%

response.value for Cc1ncccc1CNCC1CN(C2CC2)CCO1 (stereo not shown) (field: % Inhibition n=1 48h) = 14.5%

response.value for CC(=O)N1CCc2cc(C(=O)CN3CCN(c4ccc(C(F)(F)F)cc4[N+](=O)[O-])CC3)ccc21 (field: % Inhibition n=1 48h) = 3.8%

response.value for CCC1CN2C=NC(N3CCN(C(=O)CCc4ccccc4OC)CC3)=CC2=N1 (stereo not shown) (field: % Inhibition n=1 48h) = 25.4%

response.value for O=C(NCCc1ccccc1)N1CCCC1c1nc(-c2ccccc2)no1 (stereo not shown) (field: % Inhibition n=1 48h) = 0.0%

response.value for OC(CN1CCCN(C2CC2)CC1)c1ccccc1C(F)(F)F (stereo not shown) (field: % Inhibition n=1 48h) = 5.9%

response.value for Cc1ccccc1NC(=O)c1c(C)oc2ncnc(N3CCCCC3)c12 (field: % Inhibition n=1 48h) = 15.9%

response.value for Cc1nn(C)c2sc(C(=O)N3CCN(S(=O)(=O)c4ccc(Br)cc4)CC3)cc12 (field: % Inhibition n=1 48h) = 10.6%

response.value for COc1ccc(-c2cc(N3CCN(C(=O)Cc4ccc(F)cc4)CC3)[nH]n2)cc1 (field: % Inhibition n=1 48h) = 0.0%

response.value for COc1ccc(S(=O)(=O)n2nc(-c3cc(OC)c(OC)c(OC)c3)cc2N)cc1OC (field: % Inhibition n=1 48h) = 21.7%

response.value for O=C(Nc1cccc(C(=O)N2CCCC2C(=O)NCCc2ccccc2)c1)c1cccs1 (stereo not shown) (field: % Inhibition n=1 48h) = 3.7%

response.value for Cc1ccc(NC(=O)c2ccc(-c3noc(C4CCCN(C(=O)c5ccccc5)C4)n3)cc2)cc1 (stereo not shown) (field: % Inhibition n=1 48h) = 5.6%
